Here's what we have: AC50 numbers for D(3) dopamine receptor (Homo sapiens).
Property Name: AC50

- Compound: "CC(CN1c2ccccc2Sc2ccccc21)N(C)C (stereo not given)"
  Property Name: "AC50"
  Test Value: "0.28 µM"
- Compound: "CC(=O)O[C@]1(C(C)=O)CC[C@H]2[C@@H]3C=C(Cl)C4=CC(=O)[C@@H]5C[C@@H]5[C@]4(C)[C@H]3CC[C@@]21C [CYPROTERONE ACETATE]"
  Property Name: "AC50"
  Test Value: "> 30 µM"
- Compound: "O=C(NCCO[N+](=O)[O-])c1cccnc1"
  Property Name: "AC50"
  Test Value: "> 30 µM"
- Compound: "CC[C@@H](CO)NC(=O)[C@@H]1C=C2c3cccc4c3c(cn4C)C[C@H]2N(C)C1 [METHYSERGIDE]"
  Property Name: "AC50"
  Test Value: "0.42 µM"
- Compound: "CCC[C@@H]1C[C@@H](C(=O)N[C@@H]([C@H]2O[C@H](SC)[C@H](O)[C@@H](O)[C@H]2O)[C@@H](C)O)N(C)C1"
  Property Name: "AC50"
  Test Value: "> 30 µM"
- Compound: "CCOC(=O)[C@@H](N)Cc1ccc(-c2cc(O[C@H](c3ccc(Cl)cc3-n3ccc(C)n3)C(F)(F)F)nc(N)n2)cc1"
  Property Name: "AC50"
  Test Value: "> 30 µM"
- Compound: "CCC1(c2ccc(N)cc2)CCC(=O)NC1=O (stereo not given) [AMINOGLUTETHIMIDE]"
  Property Name: "AC50"
  Test Value: "> 30 µM"
- Compound: "CCOC(=O)c1c(CSc2ccccc2)n(C)c2cc(Br)c(O)c(CN(C)C)c12"
  Property Name: "AC50"
  Test Value: "6.8 µM"
- Compound: "CN(C)Cc1nnc2n1-c1ccc(Cl)cc1C(c1ccccc1)=NC2"
  Property Name: "AC50"
  Test Value: "> 30 µM"
- Compound: "NC(=O)NC(=O)Cc1ccccc1 [PHENACEMIDE]"
  Property Name: "AC50"
  Test Value: "> 30 µM"
- Compound: "CCC1(CCC(C)C)C(=O)NC(=O)NC1=O"
  Property Name: "AC50"
  Test Value: "> 30 µM"
- Compound: "CN[C@@H](C)[C@@H](O)c1ccccc1"
  Property Name: "AC50"
  Test Value: "> 10 µM"
- Compound: "CC(C)[C@@H](C)/C=C/[C@@H](C)[C@H]1CC[C@H]2/C(=C/C=C3\\C[C@@H](O)CC[C@@H]3C)CCC[C@]12C [DIHYDROTACHYSTEROL]"
  Property Name: "AC50"
  Test Value: "> 30 µM"
- Compound: "CN1Cc2c(N)cccc2C(c2ccccc2)C1 (stereo not given)"
  Property Name: "AC50"
  Test Value: "> 30 µM"
- Compound: "COc1cc(C(C)=O)ccc1OCCCN1CCC(c2noc3cc(F)ccc23)CC1"
  Property Name: "AC50"
  Test Value: "0.0373 µM"
- Compound: "CCOC(=O)c1ccc(N)cc1"
  Property Name: "AC50"
  Test Value: "> 30 µM"
- Compound: "C[N+](C)(C)CCOP(=O)([O-])OC[C@H](O)CO"
  Property Name: "AC50"
  Test Value: "> 30 µM"
- Compound: "CN(C)C/C=C/C(=O)Nc1cc2c(Nc3ccc(F)c(Cl)c3)ncnc2cc1O[C@H]1CCOC1"
  Property Name: "AC50"
  Test Value: "> 30 µM"
- Compound: "CCC(NC(C)C)C(O)c1ccc(O)c2[nH]c(=O)ccc12 (stereo not given)"
  Property Name: "AC50"
  Test Value: "> 30 µM"
- Compound: "C[N+]12CCC(CC1)C(OC(=O)C(O)(c1ccccc1)c1ccccc1)C2 (stereo not given)"
  Property Name: "AC50"
  Test Value: "> 30 µM"
- Compound: "CCC(=O)O[C@](Cc1ccccc1)(c1ccccc1)[C@H](C)CN(C)C"
  Property Name: "AC50"
  Test Value: "> 10 µM"
- Compound: "CC1(C)S[C@@H]2[C@H](NC(=O)C(C(=O)O)c3ccccc3)C(=O)N2[C@H]1C(=O)O (stereo not given in full)"
  Property Name: "AC50"
  Test Value: "> 30 µM"
- Compound: "Cc1ccccc1N1C(=O)c2cc(S(N)(=O)=O)c(Cl)cc2NC1C (stereo not given)"
  Property Name: "AC50"
  Test Value: "> 30 µM"
- Compound: "O=C(O)Cc1ccccc1Nc1c(Cl)cccc1Cl"
  Property Name: "AC50"
  Test Value: "> 10 µM"
- Compound: "OC[C@H]1O[C@@H](Oc2cc(O)cc(/C=C/c3ccc(O)cc3)c2)[C@H](O)[C@@H](O)[C@@H]1O"
  Property Name: "AC50"
  Test Value: "> 30 µM"
- Compound: "CCCN1CC(NS(=O)(=O)N(CC)CC)CC2Cc3c(O)cccc3CC21 (stereo not given) [QUINAGOLIDE]"
  Property Name: "AC50"
  Test Value: "0.0028 µM"
- Compound: "CC(Cc1cccc(C(F)(F)F)c1)NCCOC(=O)c1ccccc1 (stereo not given)"
  Property Name: "AC50"
  Test Value: "2.63 µM"
- Compound: "Cc1cccc(C)c1NC(=O)CC12CCCN1CCC2 [PILSICAINIDE]"
  Property Name: "AC50"
  Test Value: "> 30 µM"
- Compound: "CC(C)C[C@H](NC(=O)[C@@H](O)[C@H](N)Cc1ccccc1)C(=O)O"
  Property Name: "AC50"
  Test Value: "> 30 µM"
- Compound: "O=C(/C=C/c1cccc(S(=O)(=O)Nc2ccccc2)c1)NO"
  Property Name: "AC50"
  Test Value: "> 30 µM"

###

Target Or System: UniProt Q12809
Sequence (Q12809 whole entry): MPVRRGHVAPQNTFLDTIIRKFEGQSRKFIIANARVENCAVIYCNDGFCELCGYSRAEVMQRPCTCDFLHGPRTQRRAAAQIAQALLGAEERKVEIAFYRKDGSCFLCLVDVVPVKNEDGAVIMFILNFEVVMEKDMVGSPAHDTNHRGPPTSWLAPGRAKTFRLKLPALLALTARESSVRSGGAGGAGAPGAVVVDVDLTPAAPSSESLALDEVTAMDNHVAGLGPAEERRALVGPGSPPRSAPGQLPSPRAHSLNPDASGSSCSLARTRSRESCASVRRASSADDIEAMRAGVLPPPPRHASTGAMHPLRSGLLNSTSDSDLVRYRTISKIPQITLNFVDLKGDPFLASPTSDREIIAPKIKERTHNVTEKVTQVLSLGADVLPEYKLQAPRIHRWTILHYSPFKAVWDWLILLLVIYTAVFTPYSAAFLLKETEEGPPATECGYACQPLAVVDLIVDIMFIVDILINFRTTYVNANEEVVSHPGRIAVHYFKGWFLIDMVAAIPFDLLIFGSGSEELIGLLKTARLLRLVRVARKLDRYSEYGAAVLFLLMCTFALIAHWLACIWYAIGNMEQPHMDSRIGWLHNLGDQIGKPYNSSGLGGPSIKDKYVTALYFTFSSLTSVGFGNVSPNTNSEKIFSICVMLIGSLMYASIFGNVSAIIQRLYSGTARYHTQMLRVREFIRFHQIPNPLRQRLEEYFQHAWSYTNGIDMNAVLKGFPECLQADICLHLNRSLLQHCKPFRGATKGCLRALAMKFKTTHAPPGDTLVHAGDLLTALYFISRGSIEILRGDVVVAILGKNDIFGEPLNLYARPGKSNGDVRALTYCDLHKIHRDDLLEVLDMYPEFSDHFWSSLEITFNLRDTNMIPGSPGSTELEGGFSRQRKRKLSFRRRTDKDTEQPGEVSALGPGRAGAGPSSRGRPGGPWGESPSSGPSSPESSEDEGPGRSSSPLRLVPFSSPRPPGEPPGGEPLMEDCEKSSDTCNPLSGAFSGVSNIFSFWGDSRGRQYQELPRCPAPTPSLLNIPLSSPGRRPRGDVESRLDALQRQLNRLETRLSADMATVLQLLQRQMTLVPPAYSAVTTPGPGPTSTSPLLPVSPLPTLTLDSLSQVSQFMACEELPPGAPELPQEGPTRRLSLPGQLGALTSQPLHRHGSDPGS
Assay type: functional

- Compound: "N=C(N)N/N=C/c1c(Cl)cccc1Cl"
  AC50: "> 30 µM"
- Compound: "C[C@]12C=CC(=O)C=C1CC[C@@H]1[C@@H]2CC[C@]2(C)OC(=O)CC[C@@H]12"
  AC50: "> 30 µM"
- Compound: "CCCc1nc2c(C)cc(-c3nc4ccccc4n3C)cc2n1Cc1ccc(-c2ccccc2C(=O)O)cc1"
  AC50: "> 30 µM"
- Compound: "Cc1ccccc1C(=O)Nc1ccc(C(=O)N2CCCC(O)c3cc(Cl)ccc32)c(C)c1 (centres undefined)"
  AC50: "> 30 µM"
- Compound: "CCOC(=O)c1ncn2c1CN(C)C(=O)c1cc(F)ccc1-2"
  AC50: "> 30 µM"
- Compound: "Clc1ccc(C(Cn2ccnc2)OCc2csc3c(Cl)cccc23)c(Cl)c1 (centres undefined)"
  AC50: "1.7 µM"
- Compound: "CC1(CCN2CCCCC2)C(=O)CCc2ccccc21 (centres undefined) [NEPINALONE]"
  AC50: "> 30 µM"
- Compound: "CC(COc1ccccc1)NC(C)C(O)c1ccc(O)cc1 (centres undefined)"
  AC50: "15 µM"
- Compound: "N#Cc1ccc(Oc2ccc3c(c2)COB3O)cc1"
  AC50: "> 30 µM"
- Compound: "O=C(O)Cc1ccccc1Nc1c(Cl)cccc1Cl"
  AC50: "> 30 µM"
- Compound: "O=C(O)Cc1ccccc1Oc1ccc(Cl)cc1Cl"
  AC50: "> 30 µM"
- Compound: "Cn1cc(C(=O)[C@@H]2CCc3nc[nH]c3C2)c2ccccc21"
  AC50: "4.7 µM"
- Compound: "CCCN(CCC)S(=O)(=O)c1ccc(C(=O)O)cc1"
  AC50: "> 30 µM"
- Compound: "COc1ccc(OC)c(C(O)C(C)N)c1 (centres undefined)"
  AC50: "> 30 µM"
- Compound: "COc1ccc(CN2CCN(C(c3ccc(F)cc3)c3ccc(F)cc3)CC2)c(OC)c1OC"
  AC50: "0.45 µM"
- Compound: "O=C(O)CN(CCN(CC(=O)O)CC(=O)O)CCN(CC(=O)O)CC(=O)O"
  AC50: "> 30 µM"
- Compound: "O=C(O)c1ccc(NC(=O)[C@H](Cc2ccc(O)cc2)NC(=O)c2ccccc2)cc1 [BENTIROMIDE]"
  AC50: "> 30 µM"
- Compound: "CC(C)[C@@H]1CC[C@@H](C)C[C@H]1O"
  AC50: "> 30 µM"
- Compound: "COC(=O)C[C@](O)(CCCC(C)(C)O)C(=O)O[C@@H]1C(OC)=C[C@]23CCCN2CCc2cc4c(cc2[C@H]13)OCO4 [OMACETAXINE MEPESUCCINATE]"
  AC50: "> 30 µM"

###

Here's what we have: AC50 numbers for Motilin receptor (Homo sapiens, UniProt O43193).

- Compound: "CO/N=C(\\C(=O)N[C@@H]1C(=O)N2C(C(=O)O)=CCS[C@H]12)c1csc(N)n1 [CEFTIZOXIME]"
  AC50: "> 30 µM"
- Compound: "C=C1c2cccc(O)c2C(=O)C2=C(O)[C@]3(O)C(=O)C(C(N)=O)=C(O)[C@@H](N(C)C)[C@@H]3[C@@H](O)[C@H]12 [METHACYCLINE]"
  AC50: "> 30 µM"
- Compound: "COc1cc(C(=O)NC2CCCNC2)cc(OC)c1OC (stereo not drawn) [TROXIPIDE]"
  AC50: "> 30 µM"
- Compound: "CC(C)Cc1ccc([C@H](C)C(=O)O)cc1 [DEXIBUPROFEN]"
  AC50: "> 30 µM"
- Compound: "O=C(/C=C/c1cccc(S(=O)(=O)Nc2ccccc2)c1)NO [BELINOSTAT]"
  AC50: "> 10 µM"
- Compound: "CCOc1nc2cccc(C(=O)O)c2n1Cc1ccc(-c2ccccc2-c2nnn[nH]2)cc1"
  AC50: "> 30 µM"
- Compound: "CC(C)NC[C@H](O)COc1ccc(CC(N)=O)cc1 [ESATENOLOL]"
  AC50: "> 10 µM"
- Compound: "CN(Cc1cnc2nc(N)nc(N)c2n1)c1ccc(C(=O)N[C@@H](CCC(=O)O)C(=O)O)cc1 [METHOTREXATE]"
  AC50: "> 10 µM"
